meta.source: patent US20130029928A1

- method-notes: Phase I study CXR1002-001: plasma pharmacokinetics (LC-MS/MS)
- Type: in vivo, human
- condition-label: human, plasma, po, 1200 mg, Patient 037, 1200 mg weekly oral dose, Time 336 hr (Day 15); read-out: Concentration (plasma level)
metric: concentration at 336 h

Please give the measured concentration at 336 h for this compound: `O=C(O)C(F)(F)C(F)(F)C(F)(F)C(F)(F)C(F)(F)C(F)(F)C(F)(F)F`
780 µM

----------
- method-notes: Phase I study CXR1002-001: plasma pharmacokinetics (LC-MS/MS)
- Type: in vivo, human
- condition-label: human, plasma, oral, 600 mg, Patient 020, 600 mg, person, plasma, 696 hr (Day 30); read-out: Concentration
metric: concentration at 696 h

Please give the measured concentration at 696 h for this compound: O=C(O)C(F)(F)C(F)(F)C(F)(F)C(F)(F)C(F)(F)C(F)(F)C(F)(F)F [CXR1002]
615 µM

----------
- method-notes: Phase I study CXR1002-001: plasma pharmacokinetics (LC-MS/MS)
- Assay type: in vivo, human
- condition-label: human, plasma, oral, 600 mg, Patient 020, 600 mg, person, plasma, 676 hr; read-out: Concentration
metric: concentration at 676 h (µM)
Use µM as the unit, but write only the number.

Please give the measured concentration at 676 h for this molecule: `O=C(O)C(F)(F)C(F)(F)C(F)(F)C(F)(F)C(F)(F)C(F)(F)C(F)(F)F`
652

----------
- method-notes: Phase I study CXR1002-001: plasma pharmacokinetics (LC-MS/MS)
- Type: in vivo, human
- condition-label: human, plasma, oral, 950 mg, Patient 030, 950 mg, person, plasma, 4 hr; read-out: Concentration
metric: concentration at 4 h (µM)
Use µM as the unit, but write only the number.

Please give the measured concentration at 4 h for this compound: O=C(O)C(F)(F)C(F)(F)C(F)(F)C(F)(F)C(F)(F)C(F)(F)C(F)(F)F [CXR1002]
333

----------
- method-notes: Phase I study CXR1002-001: plasma pharmacokinetics (LC-MS/MS)
- Assay type: in vivo, human
- condition-label: human, plasma, oral, 950 mg, Patient 031, 950 mg, person, plasma, 674 hr; read-out: Concentration
metric: concentration at 674 h (µM)
Use µM as the unit, but write only the number.

Please give the measured concentration at 674 h for this molecule: O=C(O)C(F)(F)C(F)(F)C(F)(F)C(F)(F)C(F)(F)C(F)(F)C(F)(F)F [CXR1002]
921

----------
- method-notes: Phase I study CXR1002-001: plasma pharmacokinetics (LC-MS/MS)
- Type: in vivo, human
- condition-label: human, plasma, oral, 450 mg, Patient 017 Dose 450 mg; 696 hr; read-out: Concentration
metric: concentration at 696 h (µM)
Use µM as the unit, but write only the number.

Please give the measured concentration at 696 h for this molecule: `O=C(O)C(F)(F)C(F)(F)C(F)(F)C(F)(F)C(F)(F)C(F)(F)C(F)(F)F`
483

----------
- method-notes: Phase I study CXR1002-001: plasma pharmacokinetics (LC-MS/MS)
- Assay type: in vivo, human
- condition-label: human, plasma, oral, 300 mg, Patient 011 Dose 300 mg; 864 hr (Day 37); read-out: Concentration
metric: concentration at 864 h (µM)
Use µM as the unit, but write only the number.

Please give the measured concentration at 864 h for this compound: `O=C(O)C(F)(F)C(F)(F)C(F)(F)C(F)(F)C(F)(F)C(F)(F)C(F)(F)F`
387

----------
- method-notes: Phase I study CXR1002-001: plasma pharmacokinetics (LC-MS/MS)
- Assay type: in vivo, human
- condition-label: human, plasma, oral, 1200 mg, Patient 034, 1200 mg, person, plasma, 2 hr; read-out: Concentration
metric: concentration at 2 hr (µM)
Use µM as the unit, but write only the number.

Please give the measured concentration at 2 hr for this compound: `O=C(O)C(F)(F)C(F)(F)C(F)(F)C(F)(F)C(F)(F)C(F)(F)C(F)(F)F`
440

----------
- System: MCF-7
- method-notes: SRB cytotoxicity assay 48 hr
- Format: cell-based, human
- condition-label: Homo sapiens, MCF7, 48 h, read-out: IC50 Values After 48 Hrs Exposure
metric: pIC50
Friendly reminder that pIC50 comes from taking -log10 of the concentration in mol/L.

Please give the measured pIC50 for this compound: O=C(O)C(F)(F)C(F)(F)C(F)(F)C(F)(F)C(F)(F)C(F)(F)C(F)(F)F [APFO, Ammonium Perfluorooctanoate]
3.41

----------
- method-notes: Phase I study CXR1002-001: plasma pharmacokinetics (LC-MS/MS)
- Format: in vivo, human
- condition-label: human, plasma, oral, 600 mg, Patient 021, 600 mg, person, plasma, 864 hr (Day 37); read-out: Concentration
metric: concentration at 864 h (µM)
Use µM as the unit, but write only the number.

Please give the measured concentration at 864 h for this compound: O=C(O)C(F)(F)C(F)(F)C(F)(F)C(F)(F)C(F)(F)C(F)(F)C(F)(F)F [CXR1002]
995

----------
- method-notes: Phase I study CXR1002-001: plasma pharmacokinetics (LC-MS/MS)
- Format: in vivo, human
- condition-label: human, plasma, oral, 100 mg, Patient 005 Dose 100 mg; 676 hr; read-out: Concentration
metric: concentration at 676 h (µM)
Use µM as the unit, but write only the number.

Please give the measured concentration at 676 h for this molecule: `O=C(O)C(F)(F)C(F)(F)C(F)(F)C(F)(F)C(F)(F)C(F)(F)C(F)(F)F`
82.7

----------
- method-notes: Phase I study CXR1002-001: plasma pharmacokinetics (LC-MS/MS)
- Assay type: in vivo, human
- condition-label: human, plasma, oral, 200 mg, Patient 009 Dose 200 mg; 507 hr; read-out: Concentration
metric: concentration at 507 h
Quick note: unit goes after the number.

Please give the measured concentration at 507 h for this molecule: O=C(O)C(F)(F)C(F)(F)C(F)(F)C(F)(F)C(F)(F)C(F)(F)C(F)(F)F [CXR1002]
296 µM

----------
- method-notes: Phase I study CXR1002-001: plasma pharmacokinetics (LC-MS/MS)
- Type: in vivo, human
- condition-label: human, plasma, oral, 600 mg, Patient 023, 600 mg, person, plasma, 171 hr; read-out: Concentration
metric: concentration at 171 h (µM)
Use µM as the unit, but write only the number.

Please give the measured concentration at 171 h for this compound: `O=C(O)C(F)(F)C(F)(F)C(F)(F)C(F)(F)C(F)(F)C(F)(F)C(F)(F)F`
337

----------
- method-notes: Phase I study CXR1002-001: plasma pharmacokinetics (LC-MS/MS)
- Assay type: in vivo, human
- condition-label: human, plasma, oral, 200 mg, Patient 008 Dose 200 mg; 844 hr; read-out: Concentration
metric: concentration at 844 h
Quick note: unit goes after the number.

Please give the measured concentration at 844 h for this compound: O=C(O)C(F)(F)C(F)(F)C(F)(F)C(F)(F)C(F)(F)C(F)(F)C(F)(F)F [CXR1002]
414 µM

----------
- method-notes: Phase I study CXR1002-001: plasma pharmacokinetics (LC-MS/MS)
- Format: in vivo, human
- condition-label: human, plasma, oral, 300 mg, Patient 012 Dose 300 mg; 676 hr; read-out: Concentration
metric: concentration at 676 h (µM)
Use µM as the unit, but write only the number.

Please give the measured concentration at 676 h for this compound: `O=C(O)C(F)(F)C(F)(F)C(F)(F)C(F)(F)C(F)(F)C(F)(F)C(F)(F)F`
292

----------
- method-notes: Phase I study CXR1002-001: plasma pharmacokinetics (LC-MS/MS)
- Format: in vivo, human
- condition-label: human, plasma, po, 1200 mg, Patient 037, 1200 mg weekly oral dose, Time 3 hr; read-out: Concentration (plasma level)
metric: concentration at 3 h
Quick note: unit goes after the number.

Please give the measured concentration at 3 h for this compound: `O=C(O)C(F)(F)C(F)(F)C(F)(F)C(F)(F)C(F)(F)C(F)(F)C(F)(F)F`
302 µM

----------
- method-notes: Phase I study CXR1002-001: plasma pharmacokinetics (LC-MS/MS)
- Format: in vivo, human
- condition-label: human, plasma, oral, 750 mg, Patient 027, 750 mg, person, plasma, 675 hr; read-out: Concentration
- Text: PK samples, PD (fasting) samples, blood glucose, and blood triglyceride samples, were taken over a 6-week period. Dose limiting toxicity (DLT) will be based on the toxicity assessments over the first 3-week period of the repeat dosing schedule. […]
metric: concentration at 675 h
Quick note: unit goes after the number.

Please give the measured concentration at 675 h for this compound: O=C(O)C(F)(F)C(F)(F)C(F)(F)C(F)(F)C(F)(F)C(F)(F)C(F)(F)F [CXR1002]
811 µM
